Give measured inhibition at 10 µM for each item. Keep answers brief.
# target-desc: CYP1A (Homo sapiens, UniProt P05177)
# Construct: incubated with human liver microsomes; tissue Eurofins ITEMG232; host or cells: human liver microsomes
# Sequence (P05177 whole entry): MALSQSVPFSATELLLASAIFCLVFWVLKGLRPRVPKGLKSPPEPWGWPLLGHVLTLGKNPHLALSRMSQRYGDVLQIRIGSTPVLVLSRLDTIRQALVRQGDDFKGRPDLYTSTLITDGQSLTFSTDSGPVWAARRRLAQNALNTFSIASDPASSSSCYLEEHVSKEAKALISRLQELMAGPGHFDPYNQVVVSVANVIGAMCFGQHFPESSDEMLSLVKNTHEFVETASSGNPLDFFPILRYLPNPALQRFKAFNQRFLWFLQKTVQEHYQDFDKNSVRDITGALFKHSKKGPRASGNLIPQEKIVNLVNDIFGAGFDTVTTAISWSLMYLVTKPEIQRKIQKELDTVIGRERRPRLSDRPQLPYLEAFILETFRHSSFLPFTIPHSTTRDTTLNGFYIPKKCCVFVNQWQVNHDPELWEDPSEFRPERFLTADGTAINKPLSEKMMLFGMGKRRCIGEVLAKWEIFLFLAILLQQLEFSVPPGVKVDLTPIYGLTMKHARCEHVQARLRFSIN
# test: CYP inhibition in human liver microsomes, CYP1A
# Assay type: in vitro ADME
# details: probe phenacetin, substrate phenacetin, read-out: CYP1A Inh %
Number only, in %; omit the unit.

Asked: Bench note: what inhibition at 10 µM did Cc1cn(Cc2ccc(-c3cc(CC(C)C)sc3S(=O)(=O)NC(=O)NCc3ccccn3)cc2)c(C)n1 show?
Given back: 5

Asked: Consider the compound Cc1nccn1Cc1ccc(-c2cc(CC(C)C)sc2S(=O)(=O)NC(=O)NCc2ccccc2)cc1F and give its measured inhibition at 10 µM.
Given back: 4

Asked: Returns the measured inhibition at 10 µM for the input compound. Input: Cc1nccn1Cc1ccc(-c2cc(CC(C)C)sc2S(=O)(=O)NC(=O)NCc2ccccn2)cc1
Given back: 5

Asked: Consider the compound shown here: CCc1nccn1Cc1ccc(-c2cc(CC(C)C)sc2S(=O)(=O)NC(=O)NCCOC)cc1 What is its recorded inhibition at 10 µM?
Given back: 10.6

Asked: Look up inhibition at 10 µM: CCc1nccn1Cc1ccc(-c2cc(CC(C)C)sc2S(=O)(=O)NC(=O)NCc2ccccn2)cc1
Given back: -9

Asked: Bench note: what inhibition at 10 µM did CCc1nccn1Cc1ccc(-c2cc(CC(C)C)sc2S(=O)(=O)NC(=O)NCc2ccc(F)cc2)cc1F.O=C(O)C(F)(F)F show?
Given back: -26
